This section presents compounds with their documented growth inhibition values.
Procedure Details: NCI Yeast Anticancer Drug Screen. Data for the mlh1 rad18 strain (AID 175)
Test Parameters: S. cerevisiae mlh1 rad18 strain growth inhibition; at 50.0 µM; stronger effect = higher value
The panel holds about 79,000 compounds, 15% with a hit somewhere; the sample as a whole holds those more often.
Parameter: growth inhibition (%)

{"Compound": "c1ccc2oc(-c3ccc4c(c3)OCO4)nc2c1", "Unit String": "%", "Obs Value": -0.2}
{"Compound": "COc1cccc2c1CCC1=CC(=O)CCC12C (stereo not drawn)", "Unit String": "%", "Obs Value": -0.65}
{"Compound": "COc1ccc(CCNC(=O)c2cccc(Cl)c2)cc1OC", "Unit String": "%", "Obs Value": -12.2}
{"Compound": "C[N+](C)([O-])CCCNc1ccnc2cccc([N+](=O)[O-])c12", "Unit String": "%", "Obs Value": -21.4}
{"Compound": "Cc1ccc(S(=O)(=O)CCS(C)(=O)=O)cc1", "Unit String": "%", "Obs Value": -11.2}
{"Compound": "CNC(=S)n1ncnc1N", "Unit String": "%", "Obs Value": 8.25}
{"Compound": "O=C(CCl)Nc1cc(C(F)(F)F)ccc1Cl", "Unit String": "%", "Obs Value": 1.15}
{"Compound": "O=S(=O)(Cc1ccccc1)CC(Br)CBr (stereo not drawn)", "Unit String": "%", "Obs Value": 97.2}

====

Procedure Details: NCI Yeast Anticancer Drug Screen. Data for the sgs1 mgt1 strain (AID 161);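 note: 0% = growth of cultures given vehicle only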
Test Parameters: S. cerevisiae sgs1 mgt1 strain, at 50.0 µM
The panel holds about 79,000 compounds, 15% with a hit somewhere; the sample as a whole holds those more often. Active and inactive are the calls of the source. Rule as the data show it: active = growth inhibition above about 70%; inactive = the rest.
Labels: active, inactive

{"Compound": "Cc1[nH]c2ccccc2c1C(CC(=O)O)c1ccccc1 (stereo not drawn)", "Category Label": "inactive"}
{"Compound": "C=C(Cl)C(Br)(CCl)CCC(Cl)C(C)C (stereo not drawn) (tested in a mixture with another compound)", "Category Label": "active"}
{"Compound": "CC1(C)OC(C)(C)c2c1nnc(-c1cccc([N+](=O)[O-])c1)[n+]2[O-]", "Category Label": "inactive"}
{"Compound": "CCC(=O)Cc1cnccn1", "Category Label": "inactive"}
{"Compound": "CC(=O)NC1C(OCc2ccccc2)OC(COC(=O)CCCCCCCCCCNc2ccc([N+](=O)[O-])c3[nH]c4ccccc4c(=O)c23)C(O)C1OC(C)C(=O)NC(C)C(=O)NC(CCC(N)=O)C(=O)OCc1ccccc1 (stereo not drawn)", "Category Label": "inactive"}
{"Compound": "O=C(NC/C=C/Br)Oc1cccc2ccccc12", "Category Label": "inactive"}
{"Compound": "O=C(Nc1ccc(C(F)(F)F)cc1)NC(F)(F)F", "Category Label": "inactive"}
{"Compound": "CCOc1ccc(NC(=O)C(C)O)cc1 (stereo not drawn)", "Category Label": "inactive"}

This collection of values is drawn from PubChem BioAssay (NCI).
